Each recorded value in this set is attributed to patent US7294753.

- assayed.target: human macrophage migration inhibitory factor (MIF) (human, UniProt P14174 2-115)
- Sequence (P14174 2-115 limits assumed): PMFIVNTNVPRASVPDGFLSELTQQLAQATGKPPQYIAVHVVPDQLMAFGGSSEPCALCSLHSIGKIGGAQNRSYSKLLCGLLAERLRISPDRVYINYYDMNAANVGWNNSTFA
- assay.remarks: cell-based or functional assay
Here, each record is paired with measured % MIF PPT Activity data.
Report only the number, with the unit % understood.

1) anti-MIF monoclonal antibody 6B5-5 (antibody, V domains shown) VH: DVQLQESGPGLVKPSQSLSLTCTVTGSSITSDYAWHWIRQFPGNKLEWMGYISFSGSTGYNPSLKSRFSITRDTSKNQFFLQLNSVTTEDTATYYCAREAYGYDVGYFDYWGQGTTLTVSS VL: QIVLTQSPAIMSAFPGEKVTITCSASSSVSYMHWFQQKPGTSPKLWIYGTSNLASGVPVRFSGSGSGTSYSLTISRMEAEDAATYYCQQRSSYPWTFGGGTKLEIKR : 82
2) anti-MIF monoclonal antibody 10B11-3 (antibody, V domains shown, Mouse hybridoma antibody from a MIF knockout mouse, purified from ascites; also called Mab 10B11-3; 1OB11-3) VH: EVQLQQSGPELVKPGASVRISCKTSGYTITEYTMHWMKQSHEKSLEWIGGITPNTGVLSDNQKFRGKATLTVDKSSNTAYMELRSLTSADSAVYYCARRGNNYYGSSPWFAYWGQGTLVTVSA VL: DIQMTQSPASLSVSVGETVTITCRASENIYSNLAWYQQKQGKSPQLLVYAATNLADGVPSRFSGSGSGTQYSLNIYSLQPEDFGSYYCQHFWGTPYTFGGGTKLEIKR : 136
3) anti-MIF monoclonal antibody 33G7-9 (antibody, V domains shown) VH: DVQLQESGPDLVKPSQSLSLTCSVTGYSITSGYYWNWIRQFPGNKLEWVGYLSYDGSKSHNPSLRNRISITRDPSKNQFFLKLNSVTTEDTATYYCARGGKIFYGSSYDPFAYWGQGTLVTVSS VL: DIQMTQSPASLSASVGETVTITCRASENIFNYLSWYQQKQGKSPQLLVYNVKTLTDGVPSRFSGSGSGTQFSLKINSLQPEDFGSYYCQHHYDTPYTFGRGTKLEIKR : 67

Query: What value of % MIF PPT Activity has been reported for the following binder? anti-MIF monoclonal antibody 19B11-7 (antibody, V domains shown, Mouse hybridoma antibody from a MIF knockout mouse, purified from ascites) VH: QIQLVQSGPELKKPGETVKISCKASGYSFRNYGMNWVSQPPGKGLEWMGWINTYTGEPTYADDFKGRFAFSLDTSASTAYLTINNLKNEDTATYFCARSNYGNYFDYWGQGTTLTVSA VL: NIVLTQSPASLALSLGQRATISCRTSESVDSYASSFMHWYQQKPGQSPKLLIYLASNLESGVPARFSGSGSRTDFTLTIDPVEADDAATYYCQQSNEDPRTFGGGTQLEIKR
Result: 0
